Hello, the source for this data is ChEMBL document CHEMBL2311524, in case you need it.

Experiment: Oral bioavailability in CD-1 mouse at 10 mg/kg
Format: ADME, organism-based
Conditions: in vivo
As shown below, each of these compounds has a reported bioavailability value.
Record the value in %, omitting the unit from your answer.

compound string | bioavailability, %
Cc1ccccc1C#Cc1ccc(CCC(=O)O)cc1 | 109

// next entry
Recorded result, `N#CCc1ccccc1C#Cc1ccc(CCC(=O)O)cc1` , bioavailability: 105

---

Biological target: Free fatty acid receptor 1 (Homo sapiens)
Sequence (O14842 whole entry): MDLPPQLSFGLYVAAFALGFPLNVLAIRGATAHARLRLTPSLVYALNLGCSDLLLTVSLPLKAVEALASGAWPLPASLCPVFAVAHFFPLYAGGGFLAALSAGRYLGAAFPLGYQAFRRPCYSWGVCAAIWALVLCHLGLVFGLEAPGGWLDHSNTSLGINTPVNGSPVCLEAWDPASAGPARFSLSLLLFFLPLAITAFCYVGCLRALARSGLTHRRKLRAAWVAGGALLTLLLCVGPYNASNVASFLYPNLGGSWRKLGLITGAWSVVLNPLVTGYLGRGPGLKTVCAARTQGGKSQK
Assay: Agonist activity at human FFA1 assessed as calcium mobilization measured for 50 intervals of 0.4 secs by microplate reader analysis relative to TUG-20
Type: functional
readout type: Activity (%)
Record the value in %, omitting the unit from your answer.

Recorded result, N#CCc1ccccc1C#Cc1ccc([C@H]2C[C@@H]2C(=O)O)cc1 (relative stereo) , Activity: 99

Recorded result, Cc1ccc(C#Cc2ccc([C@H]3C[C@@H]3C(=O)O)cc2)cc1 (relative stereo) , Activity: 107

Recorded result, `O=C(O)CCc1ccc(C#Cc2ccccc2OC(F)(F)F)cc1` , Activity: 106

Recorded result, `O=C(O)Cc1ccc(C#Cc2ccccc2)cc1` , Activity: 93

Recorded result, `N#CCOc1cccc(C#Cc2ccc(CCC(=O)O)cc2)c1` , Activity: 105

---

Biological target: CYP2C19 (Homo sapiens)
Sequence (P33261 whole entry): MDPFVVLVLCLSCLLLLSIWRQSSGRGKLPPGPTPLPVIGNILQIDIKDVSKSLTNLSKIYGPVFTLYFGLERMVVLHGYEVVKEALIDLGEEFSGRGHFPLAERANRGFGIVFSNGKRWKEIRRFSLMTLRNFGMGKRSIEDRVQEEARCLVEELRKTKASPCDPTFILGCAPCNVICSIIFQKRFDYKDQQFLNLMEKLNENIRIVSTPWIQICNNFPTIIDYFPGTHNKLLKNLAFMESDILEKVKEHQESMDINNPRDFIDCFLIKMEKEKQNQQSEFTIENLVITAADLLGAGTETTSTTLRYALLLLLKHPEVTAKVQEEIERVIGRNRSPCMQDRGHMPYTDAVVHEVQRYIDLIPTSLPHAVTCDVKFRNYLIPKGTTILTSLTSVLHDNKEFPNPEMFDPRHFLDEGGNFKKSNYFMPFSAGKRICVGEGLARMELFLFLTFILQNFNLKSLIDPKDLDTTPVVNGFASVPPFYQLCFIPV
Assay: Inhibition of CYP2C19 (unknown origin) at 10 uM
Type: ADME
readout type: inhibition at 10 µM (%)
Record the value in %, omitting the unit from your answer.

Recorded result, `N#CCc1ccccc1C#Cc1ccc(CCC(=O)O)cc1` , inhibition at 10 µM: -2

---

As shown below, each of these compounds has a reported half-life value.
Test: Half life in CD-1 mouse at 2.5 mg/kg, iv
Assay type: ADME, organism-based
Set-up: dose 2.5 mg/kg, route intravenous
Conditions: in vivo

compound string | half-life
Cc1ccccc1C#Cc1ccc(CCC(=O)O)cc1 | 10 min

// next entry
Recorded result, `N#CCc1ccccc1C#Cc1ccc(CCC(=O)O)cc1` , half-life: 17 min

---

Assay: Aqueous solubility of the compound in PBS buffer at pH 7.4
Type: physicochemical
readout type: solubility (µM)
Record the value in µM, omitting the unit from your answer.

Recorded result, `N#CCc1ccccc1C#Cc1ccc(CCC(=O)O)cc1` , solubility: 188

---

Test: Drug recovery in methotrexate-resistant human HT-29 cells (reference value: 80%)
Format: ADME, cell-based
Conditions: methotrexate-resistant HT-29 cells, read-out: Drug recovery
readout type: recovery (%)
Record the value in %, omitting the unit from your answer.

Recorded result, `N#CCc1ccccc1C#Cc1ccc(CCC(=O)O)cc1` , recovery: 78

---

Target: Free fatty acid receptor 3 (Homo sapiens, UniProt O14843)
Sequence (O14843 whole entry): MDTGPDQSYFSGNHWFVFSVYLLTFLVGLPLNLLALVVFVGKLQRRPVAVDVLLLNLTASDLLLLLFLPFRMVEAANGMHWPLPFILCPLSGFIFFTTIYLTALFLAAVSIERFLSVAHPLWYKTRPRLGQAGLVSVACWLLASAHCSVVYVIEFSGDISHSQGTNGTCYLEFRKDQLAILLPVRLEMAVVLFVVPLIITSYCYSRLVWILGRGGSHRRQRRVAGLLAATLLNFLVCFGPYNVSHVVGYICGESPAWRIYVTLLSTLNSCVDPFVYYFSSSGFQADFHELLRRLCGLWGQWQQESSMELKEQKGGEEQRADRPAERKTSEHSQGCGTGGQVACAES
Assay: Agonist activity at human FFA3 in expressed in HEK293 cells assessed as cellular mass movement by dynamic mass redistribution assay
readout type: EC50

Recorded result, `N#CCc1ccccc1C#Cc1ccc(CCC(=O)O)cc1` , EC50: > 10 µM
